# measured-on: T1, human chemokine (C-C motif) receptor 8 (CCR8) (human, UniProt P51685 1-355)
# T1 construct: also called hCCR8
# run-description: flow cytometry blocking, human PBMC, CD3+ gate; competitor PE-AB14
Each item that follows carries a reported % Blocking.
Give just the numeric value; % need not be written.

Record excerpt, results attached:
binder	% Blocking / %
anti-CCR8 monoclonal antibody AB11 (antibody, V domains shown, Hybridoma monoclonal; also called antibody 11; clone 11) VH: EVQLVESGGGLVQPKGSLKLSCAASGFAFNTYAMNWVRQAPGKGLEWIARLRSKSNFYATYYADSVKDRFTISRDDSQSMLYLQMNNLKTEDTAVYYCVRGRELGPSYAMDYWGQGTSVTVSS VL: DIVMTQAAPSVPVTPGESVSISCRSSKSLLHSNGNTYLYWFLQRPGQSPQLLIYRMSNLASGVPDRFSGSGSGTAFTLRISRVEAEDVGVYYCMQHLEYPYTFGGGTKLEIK	98.3
anti-CCR8 monoclonal antibody AB7 (antibody, V domains shown, Hybridoma monoclonal; also called antibody 7; clone 7) VH: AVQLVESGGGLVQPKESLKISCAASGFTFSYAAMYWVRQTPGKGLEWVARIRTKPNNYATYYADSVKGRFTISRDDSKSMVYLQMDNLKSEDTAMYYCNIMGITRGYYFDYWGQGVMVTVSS VL: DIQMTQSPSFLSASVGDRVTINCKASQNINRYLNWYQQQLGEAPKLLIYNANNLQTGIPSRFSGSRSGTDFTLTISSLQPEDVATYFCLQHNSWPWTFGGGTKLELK	96.3

Next up:
Task item: # return recorded % Blocking for entry anti-CCR8 monoclonal antibody AB5 (antibody, V domains shown, Hybridoma monoclonal; also called antibody 5; clone 5) VH: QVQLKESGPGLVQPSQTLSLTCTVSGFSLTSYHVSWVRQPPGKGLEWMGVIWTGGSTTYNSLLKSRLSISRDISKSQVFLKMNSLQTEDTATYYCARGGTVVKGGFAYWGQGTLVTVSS VL: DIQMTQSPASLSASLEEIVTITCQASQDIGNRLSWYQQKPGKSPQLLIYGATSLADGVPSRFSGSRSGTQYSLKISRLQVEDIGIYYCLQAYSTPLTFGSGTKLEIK
Reply: 9.26
